System: NCI-H460 lung
Assay: NCI-60 one-dose screen, 48 h
Conditions: 10 µM unless noted
The panel holds about 83,000 compounds, 20% with a hit somewhere; the sample as a whole holds those more often. Calls of active or inactive are those of the source. The calls were made as follows: active = growth percent below 10; inactive = the rest.
One label from this list, please: t (active), f (inactive)

[
  {
    "compound": "COc1ccccc1P(c1ccccc1OC)c1ccccc1OC",
    "assignedLabel": "f"
  },
  {
    "compound": "N#CC1=C(N)Oc2c(ccc3ccccc23)C1c1cc(=O)oc2ccc(Cl)cc12 (stereo not given)",
    "assignedLabel": "t"
  },
  {
    "compound": "C=C1C(=O)O[C@H]2[C@H]1CC/C(CNC(=O)/C1=C/CC[C@@]3(C)O[C@H]3[C@H]3OC(=O)C(=C)[C@@H]3CC1)=C\\CC[C@@]1(C)O[C@@H]21",
    "assignedLabel": "f"
  },
  {
    "compound": "Fc1cccc(F)c1C#Cc1ccc2cccnc2c1",
    "assignedLabel": "f"
  },
  {
    "compound": "S=c1ssnc1-c1ccccn1",
    "assignedLabel": "t"
  },
  {
    "compound": "C=CC(=O)Nc1cccc(Nc2nc(Nc3ccc(OCCOC(F)F)cc3)ncc2F)c1",
    "assignedLabel": "f"
  },
  {
    "compound": "C#CC(=O)/C=C/CCCCCCC#CC(=O)CCC(=O)C#CCCCCCC/C=C/C(=O)C#C",
    "assignedLabel": "f"
  },
  {
    "compound": "O=C(C[n+]1ccccc1Cl)c1ccc2c(c1)CCCC2",
    "assignedLabel": "f"
  },
  {
    "compound": "O=C(Nc1ccc(-n2ccc3c(NC(=O)c4ccccc4)nccc32)cc1)Nc1cccc(C(F)(F)F)c1",
    "assignedLabel": "f"
  },
  {
    "compound": "Cc1cccc(CC(=O)c2ccccc2)n1",
    "assignedLabel": "f"
  }
]

Lookup: Please let me know the test result on file for C#C[C@@]1(O)[C@@H](CO)O[C@@H](n2cc(C(F)(F)F)c3c(N)ncnc32)[C@@H]1O .
Found: t

Lookup: Please let me know the test result on file for COc1ccc(Cl)cc1NC(=O)c1cc2c(n1C)-c1nc(NC(=O)C(C)(C)C)sc1CC2 .
Found: f

###

Hi there, I'd appreciate the recorded growth for every entry that follows.
Tested on: COLO 205 colon
Experiment: NCI-60 one-dose screen, 48 h (100 = growth as untreated, 0 = no growth, -100 = all killed)
Details: 10 µM unless noted
Compounds without any hit were thinned out: in the full panel of roughly 83,000, 20% have a hit.
Numbers only, in %.

Consider the following items and state reported growth for each.
1. O=C1c2ccccc2OC=C(c2ccccc2)N1CCCCN1CCCCC1
2. COc1cc(-c2nc(N)n(CC(=O)Nc3ccc(/C(C)=N\O)cc3)n2)cc(OC)c1OC
3. O=S1(=O)N(CCNc2nccc(-c3c(-c4cccc(O)c4)nc4sccn34)n2)CCN1Cc1ccccc1
4. CC(=O)c1cc2c(c(O)c1C)C(=O)C(=O)c1c(O)cccc1-2
5. Cc1nc(N)nc(SCc2ccccc2)c1Br

Found:
1. -33.6
2. 104
3. 46.4
4. -75.4
5. 105

###

Tested on: UO-31 renal
Assay: NCI-60 one-dose screen, 48 h (100 = growth as untreated, 0 = no growth, -100 = all killed)
Details: 10 µM unless noted
About 83,000 compounds went through this panel and 20% of them were active in at least one assay; those are over-represented in the sample as a whole.
resultType: growth (%)
Answers are plain numbers, in %.

[
  {
    "compound": "COc1cc(-c2nc3ccccc3s2)ccc1OCc1nc2n(n1)S(=O)(=O)c1ccccc1N2c1ccccc1",
    "resultType": "growth",
    "unitsSymbol": "%",
    "reading": 82.4
  },
  {
    "compound": "C#C[C@H](O)/C=C/CCCCCCC#C[C@H](O)CC[C@@H](O)C#CCCCCCC/C=C/[C@@H](O)C#C",
    "resultType": "growth",
    "unitsSymbol": "%",
    "reading": -82.6
  },
  {
    "compound": "O=C(NCCNc1nccc(-c2c(-c3cccc(O)c3)nc3sccn23)n1)c1ccccc1",
    "resultType": "growth",
    "unitsSymbol": "%",
    "reading": 87.7
  },
  {
    "compound": "Nc1nccc2c1ccn2-c1cccc(NC(=O)c2ccc(N3CCOCC3)c(C(F)(F)F)c2)c1",
    "resultType": "growth",
    "unitsSymbol": "%",
    "reading": 7.5
  },
  {
    "compound": "Nc1nc(=S)ss1",
    "resultType": "growth",
    "unitsSymbol": "%",
    "reading": 95.4
  }
]

Consider the following items and state reported growth for each.
1. Cc1cc2c(cc1C)N(C(=O)CCl)CCN2C(=O)CCl
2. COc1ccccc1S(=O)(=O)Nc1ccc2c3c(cc(-c4ccoc4)nc13)C(=O)N2C
3. CCC1S/C(=N\N=C(/C)c2cccs2)N(c2ccccc2)C1=O (stereo not given)
4. O=C1C(SCCO)=C(SCCO)C(=O)N1c1ccc(-c2ccccc2)cc1
5. CC(=O)O[C@@H]1[C@@H](OC(C)=O)[C@H](OC(C)=O)CO[C@H]1Nc1cccc2ccccc12

Found:
1. -81.5
2. 39.9
3. 110
4. -96.5
5. 62.4

###

Tested on: U251 CNS
Assay: NCI-60 one-dose screen, 48 h (100 = growth as untreated, 0 = no growth, -100 = all killed)
Conditions: 10 µM unless noted
Compounds without any hit were thinned out: in the full panel of roughly 83,000, 20% have a hit.
resultType: growth (%)
Answers are plain numbers, in %.

[
  {
    "molecule": "CC(Cc1cccc(C(F)(F)F)c1)NCCOC(=O)c1ccccc1 (stereo unspecified)",
    "reading": 104
  },
  {
    "molecule": "Cc1ccc2[nH]c3nc4cccnc4c(C)c3c2c1",
    "reading": 75.7
  },
  {
    "molecule": "COc1ccc(-c2cnc(-c3ccc(F)cc3)[nH]2)cc1",
    "reading": 33.3
  },
  {
    "molecule": "Cc1nssc1=S",
    "reading": 102
  }
]

Consider the following items and state reported growth for each.
1. CC1OC(n2c3ccccc3c3c4c(c5c6ccccc6[nH]c5c32)C(=O)N(CCN[C@@H]2CCC[C@H]2N)C4=O)CC(O)C1O (stereo partly specified)
2. O=C(Nc1ccc(-n2ccc3c(NC(=O)c4ccccc4)ncnc32)cc1)Nc1cccc(Cl)c1Cl
3. COc1ccc2c(c1)OC(N)=C(C#N)C2c1ccc(F)cc1 (stereo unspecified)

Found:
1: 7.39; 2: -80; 3: 31.3

Consider the following items and state reported growth for each.
1. CCOC(=O)n1cnc2c(Cl)ncnc21
2. Cn1cnc([N+](=O)[O-])c1N1c2ccncc2Sc2ccncc21
3. COc1ccc(-c2nn(-c3ccc(NC(=O)c4cc(Cl)cc(Cl)c4)cc3)cc2-c2ccncc2)cc1Cl
4. CN(C)c1ccc2cc(-c3nc4ccccc4s3)c(N)nc2c1

Found:
1. 101
2. 88.7
3. 39.2
4. 33.2

###

Tested on: SK-MEL-5 melanoma
Experiment: NCI-60 one-dose screen, 48 h (100 = growth as untreated, 0 = no growth, -100 = all killed)
Details: 10 µM unless noted
The panel holds about 83,000 compounds, 20% with a hit somewhere; the sample as a whole holds those more often.
Short version: growth at least 50% is MET, less is NOT MET.

[
  {
    "compound": "C[C@@H]1CC2C3C[C@H](F)C4=CC(=O)C=C[C@]4(C)[C@@]3(F)[C@@H](O)C[C@]2(C)[C@@]1(O)C(=O)CO (some centres undefined)",
    "assignedLabel": "MET"
  }
]

Lookup: Entry COC1=C(OC)C(=O)C=CC1=O : is its growth no less than 50%?
Found: MET

Lookup: Entry CN1CCN(CC(=O)N(C)c2ccc(N=C(c3ccccc3)c3c(O)[nH]c4ccc(C#N)cc34)cc2)CC1 : is its growth no less than 50%?
Found: NOT MET

Lookup: Entry Cc1cccc(NC(=O)CCc2ccc(N3C(N)=NC(N)=NC3(C)C)cc2)c1 : is its growth no less than 50%?
Found: NOT MET

Lookup: Entry COc1ccc(CNc2nc3ccccc3c3c(=O)c4ccccc4sc23)cc1OC : is its growth no less than 50%?
Found: MET

Lookup: Entry COc1ccc(/C=C/C(=O)c2ccc(NC(=O)CSc3nnc(-c4cc(OC)c(OC)c(OC)c4)o3)cc2)cc1 : is its growth no less than 50%?
Found: NOT MET

Lookup: Entry CCOc1ccc(Cc2nccc3cc(OCC)c(OCC)cc23)cc1OCC : is its growth no less than 50%?
Found: NOT MET

Lookup: Entry O=C(CSc1nnc(-c2ccccc2)o1)Nc1ccc(C(=O)/C=C/c2ccccc2)cc1 : is its growth no less than 50%?
Found: MET

Lookup: Entry COc1ccc(-c2nn(-c3ccc(NC(=O)c4cc(Cl)cc(Cl)c4)cc3)cc2-c2ccncc2)cc1Cl : is its growth no less than 50%?
Found: MET
